assay: budding yeast growth modifiers under rapamycin – strain BY4716, OD600, 96 h, primary screen (AID 1091); also: test concentration not given here; conditions: S. cerevisiae BY4716 + rapamycin, higher = more signal, called active from +8 up or from −8 down
Reported z-score values for a set of compounds

[
  {
    "COMPOUND": "COC(=O)[C@@]1(Cc2ccc(F)cc2)[C@H]2c3cc(C(=O)N(C)C)n(CCc4c[nH]c5ccc(OC)cc45)c3C[C@H]2CN1C(=O)c1ccccc1",
    "z-score": 0.342
  },
  {
    "COMPOUND": "C=CC[C@]1(C(=O)O)N=C(c2ccc(OCCCO)cc2)O[C@H]1c1ccccc1CN=[N+]=[N-]",
    "z-score": 0.602
  },
  {
    "COMPOUND": "COc1cc(NN2C(C(O)c3ccccc3)C=CC3C(=O)N(c4ccccc4)C(=O)C32)cc(OC)c1OC (stereo not given)",
    "z-score": 0.126
  },
  {
    "COMPOUND": "Cc1cccc(/C=C/C=O)c1",
    "z-score": -0.104
  },
  {
    "COMPOUND": "C[n+]1ccc2ccc(O)cc2c1",
    "z-score": 2.96
  }
]

---

assay: compound effects on lung adenocarcinoma cell viability – A549, calcein-AM fluorescence, 48 h, basal, profiling panel (AID 1162); settings: higher = more signal; also: test concentration not given here
Parameter: z-score. Scope: all listed entries.
MEASURED QUANTITY: z-score

[
  {
    "COMPOUND": "O=C(CS)NCCCCCCNC(=O)[C@H]1C[C@H]2C(=O)N3CCC[C@H]3C(=O)N2[C@H]1c1ccc(O)cc1",
    "REPORTED VALUE": -0.683
  },
  {
    "COMPOUND": "COCCOC(=O)N1C(=O)[C@@]2(c3cc(C#CC4(O)CCCCCC4)ccc31)[C@H](c1ccc(O)cc1)N1[C@H](c3ccccc3)[C@H](c3ccccc3)OC(=O)[C@H]1[C@@H]2C(=O)N1CCc2cc(OC)c(OC)cc2C1",
    "REPORTED VALUE": -0.742
  },
  {
    "COMPOUND": "COCCn1c(C(=O)N2CCCC2)cc2c1C[C@H]1CN(C(=O)c3ccccc3)[C@@](Cc3ccc(OC)cc3)(C(=O)OC)[C@@H]21",
    "REPORTED VALUE": 0.476
  },
  {
    "COMPOUND": "CCN(CC)c1ccc(N2CC=CC34O[C@@H]5/C=C\\CCC(C)OC(=O)C5[C@H]3C(=O)N(CCCCCCO)[C@@H]4C2=O)cc1 (some centres undefined)",
    "REPORTED VALUE": 1.21
  },
  {
    "COMPOUND": "C=C(/C(=C/C[C@@H](OC(=O)c1ccncc1)c1ccc(CO)o1)c1cc(C(=O)OC)ccc1OC)C(C)C",
    "REPORTED VALUE": 0.621
  },
  {
    "COMPOUND": "C=CCNC(=O)[C@H]1[C@@H]2C(=O)O[C@@H](c3ccccc3)[C@@H](c3ccccc3)N2[C@@H](c2ccc(OCCO)cc2)[C@]12C(=O)N(C(=O)OCCOC)c1ccc(C#CC3(O)CCCCCC3)cc12",
    "REPORTED VALUE": 1.13
  },
  {
    "COMPOUND": "O=P(NCC1(CC2(c3ccccc3)CO2)CC1)(c1ccccc1)c1ccccc1 (centres undefined)",
    "REPORTED VALUE": -1.08
  },
  {
    "COMPOUND": "CC(c1ccccc1)C(O)C1C=CC2C(=O)N(Cc3ccccc3)C(=O)C2N1n1cnnc1 (centres undefined)",
    "REPORTED VALUE": -0.313
  },
  {
    "COMPOUND": "CN(C)CCCC[C@@H]1NC(=O)[C@@H]2C[C@H](C(=O)NCCCCCCN)[C@H](c3ccc(O)cc3)N2C1=O",
    "REPORTED VALUE": -0.215
  },
  {
    "COMPOUND": "O=C1O[C@@H](c2ccccc2)[C@@H](c2ccccc2)N2[C@@H](c3ccccc3OCCO)[C@]3(C(=O)Nc4ccc(C#CC5(O)CCCCCC5)cc43)[C@@H](C(=O)NC[C@H](O)c3ccccc3)[C@H]12",
    "REPORTED VALUE": -0.724
  },
  {
    "COMPOUND": "[N-]=[N+]=NCc1ccccc1C[C@]1(C(=O)NCC(O)CO)COC(c2ccc(OCCCO)cc2)=N1 (some centres undefined)",
    "REPORTED VALUE": -0.226
  },
  {
    "COMPOUND": "COC(=O)[C@@]1(Cc2ccc(OC)cc2)[C@H]2c3cc(C(=O)N4CCCC4)n(C[C@H](O)CO)c3C[C@H]2CN1C(=O)c1ccccc1",
    "REPORTED VALUE": -0.892
  },
  {
    "COMPOUND": "CCCCN1CC=CC23O[C@@H]4/C=C\\CCCOC(=O)C4[C@H]2C(=O)N(C(C)CO)[C@@H]3C1=O (some centres undefined)",
    "REPORTED VALUE": -0.455
  },
  {
    "COMPOUND": "O=C(NCc1ccccc1)[C@@H]1c2ccccc2C(=O)N(Cc2cc(F)cc(C(F)(F)F)c2)[C@H]1c1ccc(CO)cc1",
    "REPORTED VALUE": 1.5
  }
]
